# System: OVCAR-3 ovarian
# Measurement Description: NCI-60 one-dose screen, 48 h (100 = growth as untreated, 0 = no growth, -100 = all killed)
# Test Parameters: 10 µM unless noted
This is part of a sample that, as a whole, favours compounds with a hit. Of some 83,000 tested, about 20% had one in any assay.
Recorded growth values for a group of molecules are listed next.
Give your result in % as a bare value.

// solved cases for growth follow
| Molecule | Reading Unit | growth |
| --- | --- | --- |
| Cc1cc(O)c(C2=NN(c3ccc(S(N)(=O)=O)cc3)C(/C=C/c3ccccc3)C2)cc1Cl (stereo not given) | % | 29.7 |
| CN(C(=O)NCc1cccc(F)c1Cl)[C@H](COC(=O)Nc1cc2ccccc2cn1)CC(O)CO (stereo not given in full) | % | 103 |
| COc1ccc(-c2cc3c4c(nc5ccccc5c4c2)CC(c2cc(OC)c(OC)c(OC)c2)O3)cc1 (stereo not given) | % | 41.9 |
| COc1ccc(-n2c(N)c(-c3nc4ccccc4[nH]3)cc(C#N)c2=O)cc1 | % | 107 |
| O=C(Nc1ccc(Br)cc1F)c1cc(Br)ccc1O | % | 5.37 |
| O=C1/C(=C/c2ccccc2[N+](=O)[O-])Oc2ccc(O)c(O)c21 | % | 35.1 |
| COc1ccc(C2CC(c3ccc(Nc4ccnc5cc(Cl)ccc45)cc3)=NN2C=O)cc1 (stereo not given) | % | 52.7 |
| O=C(Nc1nc2ccc(F)cc2s1)c1cccnc1Nc1ccc(Cl)cc1Cl | % | -3.55 |

Could you please provide reported growth for CCOC(=O)c1cn2ncnc(Oc3ccc(NC(=O)NCCN4CCOCC4)c(Cl)c3)c2c1C ? Thanks!
105

Could you please provide reported growth for COc1ccc(-c2nc(NN)c3c(C)nn(-c4ccc(F)cc4)c3n2)cc1 ? Thanks!
12
